# Tested on: ABL1-phosphorylated
# test_parameters: concentration: 1 μM, replicates: in singlicate; n = 1;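 note: KINOMEscan kinase panel screen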
Flag rule - %Inh less than 9% flags yes (1); the remaining entries get no (0).

Is the reported %Inh for COc1cccc(C2=C(Nc3cccc(O)c3)C(=O)NC2=O)c1 [SB-390771] strictly below 9%?
yes (1)

Please give the result for Fc1cc(Cl)ccc1Nc1ccnc2cc(-c3ccc(CN4CCOCC4)o3)ccc12 [GW560109] too.
no (0)

Same question for O=C(Nc1c(F)cccc1F)c1cc(C(=O)c2ccccc2F)c[nH]1 [GSK1326180] please.
yes (1)

Cc1ccc(O)cc1Nc1ccnc2ccc(C(C)(C)C)cc12 [GW856805] ?
no (0)

Next: CN1CCN(Cc2ccc(NC(=O)Nc3ccc(N(C)c4ccnc(Nc5ccc(CS(C)(=O)=O)cc5)n4)cc3)cc2)CC1.Cl [GW827654]
no (0)

Input COc1ccc(C2=C(Nc3cccc(O)c3)C(=O)NC2=O)cc1 [SB-390766]
yes (1)

Try COc1cc(Nc2nccc(N3CCC(NS(=O)(=O)c4ccc(NC(C)=O)cc4)CC3)n2)cc(OC)c1OC [GSK1379825] next.
yes (1)

// same read-out, input: CCOc1nccc(-c2c(-c3ccc(F)cc3)ncn2C2CCNCC2)n1 [SB-249175]
yes (1)

---

Give measured %Inh for each item. Keep answers brief.
# System: ZAP70
# test_parameters: concentration: 1 μM, replicates: in singlicate; n = 1
Form entry: value (%) — number only.

What value of %Inh has been recorded for this entry: `Cc1cccc(Nc2nc(NCCN)ncc2C(N)=O)c1`
74

Moving on to CC(C)NCC(Cc1ccccc1)NC(=O)c1cc(Br)c(-c2ccnc3[nH]ccc23)s1.Cl.Cl (centres unmarked)
0

Also `CC(C)(C)c1ccc(C(=O)Nc2cn3cc(-n4ccnc4)ccc3n2)cc1` ?
0

Next record, please: `Cc1ccc(NC(=O)c2ccnc(N3CCCCC3)c2)cc1-c1ccc(C(=O)NCC2CC2)cc1`
0

Further, for `O=C(Nc1n[nH]c2nc(-c3ccccc3O)ccc12)C1CC1` ?
0

---

# Test system: MET
# test_parameters: concentration: 1 μM, replicates: in singlicate; n = 1
value_type: %Inh

What reported %Inh corresponds to Cc1ccc(Nc2ccnc(Nc3ccc(C)c(F)c3)n2)cc1O.Cl [GW582868] on MET?
0%

And COc1ccc(C2=C(Nc3cccc(O)c3)C(=O)NC2=O)cc1 [SB-390766] ?
0%

Follow-up entry: COc1ccc(NC(=O)c2ccoc2)cc1-c1ccc(C(=O)NCC2CC2)cc1 [GW810437]
0%

---

# System: MET
# test_parameters: concentration: 1 μM, replicates: in singlicate; n = 1
value_type: %Inh
# answer = value followed by unit

Quick check: %Inh of `O=C(Nc1c(F)cccc1F)c1cc(C(=O)c2ccccc2F)c[nH]1` ?
0%

Queued: Cl.Cl.NCC(NC(=O)c1cc(-c2cccnc2)c(-c2ccnc3[nH]ccc23)s1)c1ccccc1 (centres unmarked)
0%

Next molecule: `CC(C)(C)c1ccc(C(=O)Nc2cn3cc(-n4ccnc4)ccc3n2)cc1`
0%

Ok, now `CN(C)CCOc1ccc(-c2cc(-c3ccc(Cl)c(O)c3)c(-c3ccncc3)[nH]2)cc1.Cl.Cl`
43%

Subsequent entry: `CN(c1ccc2c(c1)nc(NCc1ccccc1)n2C)c1ccnc(Nc2ccc(CS(C)(=O)=O)cc2)n1.Cl`
46%

Now consider `Cc1ccc(NC(=O)c2ccc(Cl)c(Cl)c2)cc1-c1ccc(C(=O)Nc2ccncc2)cc1` .
0%

Repeat for the following molecule: `Cn1cc(-c2ccc3c(c2)CCN3C(=O)Cc2cc(F)cc(C(F)(F)F)c2)c2c(N)ncnc21`
21%

Try this molecule next: `Cc1nn2c(=O)cc(N3CCO[C@H](C)C3)nc2n1Cc1cccc(Cl)c1Cl`
0%
